Source listed as paper PMC6149664.

# System: M. kansasii 6 509/96 clinical isolate
# measurement.description: In vitro antimycobacterial MIC, dilution-micromethod in Šula semisynthetic medium
# Type: cell-based
# condition.context: Mycobacterium kansasii, 504 h; 21 d cultivation; read-out: MIC, MK 6 509/96
Each entry below carries its recorded MIC.
measured.endpoint: MIC (µM)

- molecule: "CCCOC(=O)Nc1cccc(C(O)CN2CCN(c3ccccc3F)CC2)c1.Cl (centres unmarked)"
  measured.endpoint: "MIC"
  comparison.symbol: "="
  result: 125
- molecule: "CCCCOC(=O)Nc1cccc(C(O)CN2CCN(c3ccccc3F)CC2)c1.Cl (centres unmarked)"
  measured.endpoint: "MIC"
  comparison.symbol: "="
  result: 62.5
- molecule: "CC1COc2c(N3CCN(C)CC3)c(F)cc3c(=O)c(C(=O)O)cn1c23 (centres unmarked) [OFLX, ofloxacin, reference compound]"
  measured.endpoint: "MIC"
  comparison.symbol: "="
  result: 1
- molecule: "CCOC(=O)Nc1ccc(C(O)CN2CCN(c3ccccc3F)CC2)cc1.Cl (centres unmarked)"
  measured.endpoint: "MIC"
  comparison.symbol: ">"
  result: 125
- molecule: "CCCCOC(=O)Nc1ccc(C(O)CN2CCN(c3ccccc3F)CC2)cc1.Cl (centres unmarked)"
  measured.endpoint: "MIC"
  comparison.symbol: ">"
  result: 250
- molecule: "COC(=O)Nc1ccc(C(O)CN2CCN(c3ccccc3F)CC2)cc1.Cl (centres unmarked)"
  measured.endpoint: "MIC"
  comparison.symbol: "="
  result: 500
- molecule: "COC(=O)Nc1cccc(C(O)CN2CCN(c3ccccc3F)CC2)c1.Cl (centres unmarked)"
  measured.endpoint: "MIC"
  comparison.symbol: "="
  result: 500
- molecule: "CCCOC(=O)Nc1ccc(C(O)CN2CCN(c3ccccc3F)CC2)cc1.Cl (centres unmarked)"
  measured.endpoint: "MIC"
  comparison.symbol: ">"
  result: 250
- molecule: "CCOC(=O)Nc1cccc(C(O)CN2CCN(c3ccccc3F)CC2)c1.Cl (centres unmarked)"
  measured.endpoint: "MIC"
  comparison.symbol: "="
  result: 250
- molecule: "NNC(=O)c1ccncc1 [INH, isonicotinic acid hydrazide, reference compound]"
  measured.endpoint: "MIC"
  comparison.symbol: "="
  result: 8
- molecule: "CC[C@@H](CO)NCCN[C@@H](CC)CO [EMB, ethambutol, reference compound]"
  measured.endpoint: "MIC"
  comparison.symbol: "="
  result: 2

###

# Tested on: M. kansasii CNCTC My 235/80 (identical with ATCC 12478)
# measurement.description: In vitro antimycobacterial MIC, dilution-micromethod in Šula semisynthetic medium
# Type: cell-based, Mycobacterium kansasii
# condition.context: Mycobacterium kansasii, ATCC12478, 168 h, 7 d cultivation; read-out: MIC, MK My 235/80
measured.endpoint: MIC (µM)

- compound: "CC1COc2c(N3CCN(C)CC3)c(F)cc3c(=O)c(C(=O)O)cn1c23 (stereo not shown) [OFLX, ofloxacin, reference compound]"
  assay.target: "M. kansasii CNCTC My 235/80 (identical with ATCC 12478)"
  comparison.symbol: "="
  result: 0.5
- compound: "CCCOC(=O)Nc1ccc(C(O)CN2CCN(c3ccccc3F)CC2)cc1.Cl (stereo not shown)"
  assay.target: "M. kansasii CNCTC My 235/80 (identical with ATCC 12478)"
  comparison.symbol: "="
  result: 125
- compound: "COC(=O)Nc1ccc(C(O)CN2CCN(c3ccccc3F)CC2)cc1.Cl (stereo not shown)"
  assay.target: "M. kansasii CNCTC My 235/80 (identical with ATCC 12478)"
  comparison.symbol: "="
  result: 125
- compound: "NNC(=O)c1ccncc1 [INH, isonicotinic acid hydrazide, reference compound]"
  assay.target: "M. kansasii CNCTC My 235/80 (identical with ATCC 12478)"
  comparison.symbol: ">"
  result: 250
- compound: "CCCCOC(=O)Nc1ccc(C(O)CN2CCN(c3ccccc3F)CC2)cc1.Cl (stereo not shown)"
  assay.target: "M. kansasii CNCTC My 235/80 (identical with ATCC 12478)"
  comparison.symbol: "="
  result: 62.5
- compound: "CCOC(=O)Nc1ccc(C(O)CN2CCN(c3ccccc3F)CC2)cc1.Cl (stereo not shown)"
  assay.target: "M. kansasii CNCTC My 235/80 (identical with ATCC 12478)"
  comparison.symbol: "="
  result: 125
- compound: "CCOC(=O)Nc1cccc(C(O)CN2CCN(c3ccccc3F)CC2)c1.Cl (stereo not shown)"
  assay.target: "M. kansasii CNCTC My 235/80 (identical with ATCC 12478)"
  comparison.symbol: "="
  result: 62.5
- compound: "CC[C@@H](CO)NCCN[C@@H](CC)CO [EMB, ethambutol, reference compound]"
  assay.target: "M. kansasii CNCTC My 235/80 (identical with ATCC 12478)"
  comparison.symbol: "="
  result: 1
- compound: "CCCCOC(=O)Nc1cccc(C(O)CN2CCN(c3ccccc3F)CC2)c1.Cl (stereo not shown)"
  assay.target: "M. kansasii CNCTC My 235/80 (identical with ATCC 12478)"
  comparison.symbol: "="
  result: 32
- compound: "COC(=O)Nc1cccc(C(O)CN2CCN(c3ccccc3F)CC2)c1.Cl (stereo not shown)"
  assay.target: "M. kansasii CNCTC My 235/80 (identical with ATCC 12478)"
  comparison.symbol: "="
  result: 125

###

# measurement.description: Isocratic RP-HPLC lipophilicity (k, log k, extrapolated log kw, slope S), MeOH/water mobile phases
# Assay type: physicochemical
# condition.context: mobile phase MeOH/water 85:15 (v/v)
# Protocol: Octadecyl-functionalized silica gel was used as a stationary phase in the RP-HPLC evaluation of 8a–h. A gradient of two solvents at different volume ratios modulated retention properties of a stationary phase. […] Methanol (MeOH)/water mobile phases with a various volume ratio of the organic modifier and water (60:40, 70:30, 80:20 and 85:15, respectively; v/v) were chosen. A concentration of all analyzed compounds 8a–h was c = 0.25 mg/mL. […]
Each entry below carries its recorded log k (RP-HPLC).
measured.endpoint: log k (RP-HPLC)

- molecule: "CCCOC(=O)Nc1ccc(C(O)CN2CCN(c3ccccc3F)CC2)cc1.Cl (centres unmarked)"
  result: "−0.020"
- molecule: "CCCCOC(=O)Nc1ccc(C(O)CN2CCN(c3ccccc3F)CC2)cc1.Cl (centres unmarked)"
  result: 0.069
- molecule: "CCCCOC(=O)Nc1cccc(C(O)CN2CCN(c3ccccc3F)CC2)c1.Cl (centres unmarked)"
  result: 0.074
- molecule: "CCCOC(=O)Nc1cccc(C(O)CN2CCN(c3ccccc3F)CC2)c1.Cl (centres unmarked)"
  result: 0.010
- molecule: "COC(=O)Nc1cccc(C(O)CN2CCN(c3ccccc3F)CC2)c1.Cl (centres unmarked)"
  result: "−0.156"
- molecule: "CCOC(=O)Nc1ccc(C(O)CN2CCN(c3ccccc3F)CC2)cc1.Cl (centres unmarked)"
  result: "−0.121"
- molecule: "COC(=O)Nc1ccc(C(O)CN2CCN(c3ccccc3F)CC2)cc1.Cl (centres unmarked)"
  result: "−0.196"
- molecule: "CCOC(=O)Nc1cccc(C(O)CN2CCN(c3ccccc3F)CC2)c1.Cl (centres unmarked)"
  result: "−0.056"

###

# measurement.description: Isocratic RP-HPLC lipophilicity (k, log k, extrapolated log kw, slope S), MeOH/water mobile phases
# Format: physicochemical
# condition.context: extrapolated to 100% water from log k vs ϕM (MeOH)
Each entry below carries its recorded log kw (RP-HPLC).
measured.endpoint: log kw (RP-HPLC)

- compound: "CCCOC(=O)Nc1ccc(C(O)CN2CCN(c3ccccc3F)CC2)cc1.Cl (centres unmarked)"
  result: 2.600
- compound: "CCCOC(=O)Nc1cccc(C(O)CN2CCN(c3ccccc3F)CC2)c1.Cl (centres unmarked)"
  result: 2.679
- compound: "CCCCOC(=O)Nc1ccc(C(O)CN2CCN(c3ccccc3F)CC2)cc1.Cl (centres unmarked)"
  result: 2.930
- compound: "CCCCOC(=O)Nc1cccc(C(O)CN2CCN(c3ccccc3F)CC2)c1.Cl (centres unmarked)"
  result: 2.796
- compound: "CCOC(=O)Nc1ccc(C(O)CN2CCN(c3ccccc3F)CC2)cc1.Cl (centres unmarked)"
  result: 2.512
- compound: "COC(=O)Nc1cccc(C(O)CN2CCN(c3ccccc3F)CC2)c1.Cl (centres unmarked)"
  result: 2.430
- compound: "COC(=O)Nc1ccc(C(O)CN2CCN(c3ccccc3F)CC2)cc1.Cl (centres unmarked)"
  result: 2.113
- compound: "CCOC(=O)Nc1cccc(C(O)CN2CCN(c3ccccc3F)CC2)c1.Cl (centres unmarked)"
  result: 2.546

###

# Assay type: physicochemical
# Design: key: RM = log(1/Rf - 1), from Rf in HCl/acetone mobile phase
# condition.context: silica gel plates impregnated with 5% silicone oil in heptane
Each entry below carries its recorded RM (RP-TLC).

- compound: "CCOC(=O)Nc1ccc(C(O)CN2CCN(c3ccccc3F)CC2)cc1.Cl (centres unmarked)"
  RM (RP-TLC): 0.41
- compound: "COC(=O)Nc1cccc(C(O)CN2CCN(c3ccccc3F)CC2)c1.Cl (centres unmarked)"
  RM (RP-TLC): -0.05
- compound: "COC(=O)Nc1ccc(C(O)CN2CCN(c3ccccc3F)CC2)cc1.Cl (centres unmarked)"
  RM (RP-TLC): 0.25
- compound: "CCCCOC(=O)Nc1ccc(C(O)CN2CCN(c3ccccc3F)CC2)cc1.Cl (centres unmarked)"
  RM (RP-TLC): 0.83
- compound: "CCCCOC(=O)Nc1cccc(C(O)CN2CCN(c3ccccc3F)CC2)c1.Cl (centres unmarked)"
  RM (RP-TLC): 0.64
- compound: "CCCOC(=O)Nc1cccc(C(O)CN2CCN(c3ccccc3F)CC2)c1.Cl (centres unmarked)"
  RM (RP-TLC): 0.44
- compound: "CCCOC(=O)Nc1ccc(C(O)CN2CCN(c3ccccc3F)CC2)cc1.Cl (centres unmarked)"
  RM (RP-TLC): 0.55
- compound: "CCOC(=O)Nc1cccc(C(O)CN2CCN(c3ccccc3F)CC2)c1.Cl (centres unmarked)"
  RM (RP-TLC): 0.11
